- system.tested: recombinant human Wee1A kinase (Homo sapiens, UniProt P30291)
- Construct: full length Wee1 kinase was expressed by baculovirus in insect cells; purchased Invitrogen PV3817; host or cells: insect cells (baculovirus)
- Sequence (P30291 whole entry): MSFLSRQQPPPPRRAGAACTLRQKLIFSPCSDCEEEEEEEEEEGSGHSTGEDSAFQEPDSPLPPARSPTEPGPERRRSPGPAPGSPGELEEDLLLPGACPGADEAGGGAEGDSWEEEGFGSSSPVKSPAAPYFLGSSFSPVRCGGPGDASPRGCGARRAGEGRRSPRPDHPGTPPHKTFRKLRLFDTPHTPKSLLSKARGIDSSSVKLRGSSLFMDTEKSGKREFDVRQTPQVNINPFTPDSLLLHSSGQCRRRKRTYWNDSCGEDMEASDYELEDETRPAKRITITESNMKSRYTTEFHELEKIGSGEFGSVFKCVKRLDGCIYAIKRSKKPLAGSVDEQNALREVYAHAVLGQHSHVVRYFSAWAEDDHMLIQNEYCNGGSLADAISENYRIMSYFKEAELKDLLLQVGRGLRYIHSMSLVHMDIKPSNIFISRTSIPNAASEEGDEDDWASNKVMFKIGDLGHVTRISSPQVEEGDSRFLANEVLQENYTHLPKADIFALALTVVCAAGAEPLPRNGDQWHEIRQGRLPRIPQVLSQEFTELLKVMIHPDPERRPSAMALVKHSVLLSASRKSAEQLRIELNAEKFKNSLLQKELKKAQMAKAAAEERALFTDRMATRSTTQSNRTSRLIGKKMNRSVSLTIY
- procedure.details: Wee1A kinase binding assay (LanthaScreen Eu time-resolved FRET)
- stated.conditions: 30 nM tracer 178, 5 nM Wee1A kinase, 2 nM Eu-labeled antibody; 60 minutes at room temperature; read-out: Wee1A kinase Binding IC50
quantity.kind: IC50

item.smiles: C=CCn1c(=O)c2cnc(Nc3ccccc3)nc2n1-c1cccc(NC2CCNCC2)n1
IC50: < 0.01 µM
//
item.smiles: C=CCn1c(=O)c2cnc(Nc3ccc4nc(C)sc4c3)nc2n1-c1cccc(OC2CCN(C)CC2)n1
IC50: < 0.01 µM
//
item.smiles: CCn1c(=O)c2cnc(Nc3ccc(-c4ccccc4)cc3)nc2n1-c1cccc(OC2CCNCC2)n1
IC50: < 0.01 µM

Measured on recombinant human Wee1A kinase (Homo sapiens, UniProt P30291), C=CCn1c(=O)c2cnc(Nc3ccc(Cl)cc3)nc2n1-c1cccc(NC2CCNCC2)n1 has a documented IC50 of < 0.01 µM
